# Assay remarks: Pharmacokinetic study after IP administration
# Assay type: in vivo, male C57BL/6 mice
# Assay setup: male, C57BL/6, mouse, in vivo, ip, 3 mg/kg
Each item that follows carries a reported AUC(0-t).
Quantity kind: AUC(0-t) (ng·h/mL)

structure_as_smiles=CC12CC3CC(NC(=O)N[C@H]4CC[C@H](Oc5ccc(C(=O)O)cc5)CC4)(CC(C1)c1ccccc13)C2 value_reported=2260
structure_as_smiles=O=C(NC12CC3CC(Cl)(CC(C1)c1ccccc13)C2)N[C@H]1CC[C@H](Oc2ccc(C(=O)O)cc2)CC1 value_reported=22500

###

# Assay remarks: Concentrations in plasma and pancreatic tissue in the efficacy study
# Type: in vivo, C57BL/6 male mice
# Assay setup: male, C57BL/6, mouse, plasma, intraperitoneal; 0.3 mg/kg IP, 10 h post-administration; read-out: plasma level
Quantity kind: concentration at 10 h (µM)

structure_as_smiles=O=C(NC12CC3CC(Cl)(CC(C1)c1ccccc13)C2)N[C@H]1CC[C@H](Oc2ccc(C(=O)O)cc2)CC1 value_reported=0.175
